Biological target: SpSla1-D3
Assay: SPOT peptide array binding signal intensity (averaged, normalized) (arbitrary units (background-subtracted, floor 0; scale differs between SH3 domains)); higher = stronger binding of the SH3 domain to the peptide
READOUT_KIND: SPOT peptide array binding signal intensity

1) DRIRMFIRFPKFLLE: 49
2) SSSSSPPPLPTRRDH: 9.5

Ref: the supplement of paper PMC4466140
